# subjectOfTest: hERG potassium channel (Homo sapiens, UniProt Q12809)
# Sequence (Q12809 whole entry): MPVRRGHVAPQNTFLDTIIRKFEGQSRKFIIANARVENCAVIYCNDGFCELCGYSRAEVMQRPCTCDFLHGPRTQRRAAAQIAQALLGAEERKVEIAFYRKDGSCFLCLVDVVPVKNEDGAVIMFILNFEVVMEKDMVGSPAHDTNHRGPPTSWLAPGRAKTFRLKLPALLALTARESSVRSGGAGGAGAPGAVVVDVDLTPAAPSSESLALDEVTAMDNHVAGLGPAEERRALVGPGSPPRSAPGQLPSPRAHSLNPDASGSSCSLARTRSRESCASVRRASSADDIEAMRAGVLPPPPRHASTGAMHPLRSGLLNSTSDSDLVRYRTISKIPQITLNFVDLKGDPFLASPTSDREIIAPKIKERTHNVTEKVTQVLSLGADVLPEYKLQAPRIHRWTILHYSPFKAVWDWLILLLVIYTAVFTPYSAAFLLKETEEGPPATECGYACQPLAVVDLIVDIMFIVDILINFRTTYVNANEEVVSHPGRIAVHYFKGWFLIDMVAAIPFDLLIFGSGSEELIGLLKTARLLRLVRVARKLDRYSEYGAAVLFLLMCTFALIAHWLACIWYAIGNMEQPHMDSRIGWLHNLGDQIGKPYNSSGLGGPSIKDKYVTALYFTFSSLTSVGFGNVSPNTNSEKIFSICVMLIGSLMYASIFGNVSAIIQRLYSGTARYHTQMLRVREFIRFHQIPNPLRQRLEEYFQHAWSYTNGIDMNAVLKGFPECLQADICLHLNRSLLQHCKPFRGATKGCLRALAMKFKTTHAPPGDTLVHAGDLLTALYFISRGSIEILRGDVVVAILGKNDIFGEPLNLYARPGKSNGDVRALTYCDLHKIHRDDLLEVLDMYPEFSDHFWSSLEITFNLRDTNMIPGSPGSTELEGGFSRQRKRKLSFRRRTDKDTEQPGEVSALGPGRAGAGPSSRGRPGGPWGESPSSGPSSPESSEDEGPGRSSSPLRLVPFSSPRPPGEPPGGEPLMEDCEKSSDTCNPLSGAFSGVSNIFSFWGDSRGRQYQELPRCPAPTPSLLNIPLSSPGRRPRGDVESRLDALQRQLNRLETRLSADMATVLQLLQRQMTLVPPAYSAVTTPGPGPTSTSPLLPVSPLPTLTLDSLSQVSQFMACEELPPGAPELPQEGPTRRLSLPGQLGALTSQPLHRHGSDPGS
# assaySummary: hERG channel inhibition test
pIC50: −log10 of the molar value.

# compound, pIC50
rows = [
    ("CC(C)[C@H]1OC(=O)[C@H](Cc2ccccc2)N(C)C(=O)[C@@H](C(C)C)OC(=O)[C@H](Cc2ccccc2)N(C)C(=O)[C@@H](C(C)C)OC(=O)[C@H](Cc2ccccc2)N(C)C1=O [BEA, beauvericin]", "~5.59"),
]

Each recorded value in this set is attributed to paper PMC5640798.
